Tested on: HTT mRNA
Method description: RT-qPCR splicing assay, HTT canonical junction (CJ) and alternative junction (AJ) mRNA
Assay type: cell-based, human
Condition summary: Homo sapiens, decrease in HTT canonical junction (CJ) mRNA, RT-qPCR; read-out: HTT CJ IC50
Measured property: IC50

1) Cc1cn2nc(-c3cc(C#N)c4c(=O)n(C5CCNC6(CC6)C5)ccc4c3)cc(C)c2n1 (stereo not shown) [Compound 387] = < 100 nM
2) Cc1cc(-c2cnc3c(=O)n(C4CCNCC4)cnc3c2)cc2cn(C)nc12 [Compound 311] = 1000 to 10000 nM
3) Cc1cn2cc(-c3cc(F)c4c(=O)n(C5CCOCC5)cnc4c3)cc(C#N)c2n1 [Compound 367] = 100 to 1000 nM
4) CNc1cc(-c2cn3cc(C)nc3c(C)n2)cc2ncn(C3CCNCC3)c(=O)c12 [Compound 360] = > 10000 nM
5) Cn1cc2cc(-n3cnc4ccc(N5CCNCC5)cc4c3=O)ccc2n1 [Compound 2155] = > 10000 nM

What IC50 appears in the records for this molecule with HTT mRNA? Cc1cn2cc(-c3cc(S(C)(=O)=O)c4c(=O)n(C5CCNCC5)ccc4c3)cc(F)c2n1 [Compound 409] > 10000 nM

Lab request: please report IC50 under test system HTT mRNA for COc1c(-c2cc3ccn(C4CCNCC4)c(=O)c3cn2)cc2cn(C)nc2c1F [Compound 1219] 1000 to 10000 nM

Tell me reported IC50 for CN1CCN(c2ccc3ncn(-c4ccc5nn(C)cc5c4)c(=O)c3c2)CC1 [Compound 2154] , tested with HTT mRNA. > 10000 nM

Record lookup: for HTT mRNA, what IC50 belongs to Cc1cn2cc(-c3cc(F)c4c(=O)n([C@H]5CNCC[C@@H]5O)cnc4c3)cc(F)c2n1 [Compound 348] ? > 10000 nM

Find the measured IC50: item Cc1cc(-c2ccc3c(=O)n(C4CC(C)(C)NC(C)(C)C4)cnc3n2)cc2cn(C)nc12 [Compound 179] , target or system HTT mRNA. > 10000 nM

Param readout = IC50; param system = HTT mRNA; param query = Cc1cn2cc(-c3cc(F)c4c(=O)n(C5CCNCC5)cnc4c3)cc(C)c2n1 [Compound 317] ; response: value 100 to 1000 nM

Recorded IC50 for Cc1cn2cc(-c3ccc4c(=O)n([C@@H]5CCCNC5)ccc4c3)cc(F)c2n1 (single isomer, unassigned) [Compound 403] with HTT mRNA, please? 1000 to 10000 nM

Entry Cc1cn2nc(-c3cc(O)c4c(=O)n(C5CCNCC5)ncc4c3)cc(C)c2n1 [Compound 541] , system HTT mRNA: what IC50 was measured? < 100 nM

Given the entry COC(=O)Cc1cc(-c2ccc3c(=O)n(C4CCNCC4)ccc3c2)nn2cc(C)nc12 [Compound 527] , what IC50 was observed with HTT mRNA? 100 to 1000 nM

Request - read-out IC50 | tested on HTT mRNA | molecule Cc1cn2cc(-c3cc(F)c4c(=O)n(C5CCNCC5)ccc4c3)cc(F)c2n1 [Compound 370] < 100 nM

Requested read-out IC50, target or system HTT mRNA, entry Cc1cn2cc(-c3ccc4c(=O)n(C5CCNC(C)(C)C5)cnc4c3)cc(F)c2n1 (stereo not shown) [Compound 237] 100 to 1000 nM
